Reference source for all entries: patent US6673793B2

Listing of entries alongside the reported melting point.

INSERT INTO results (molecule, assayreadout, valuemeasured) VALUES
  ('O=C(NCc1ccc(Cl)cc1)c1cn2c3c(cc(CN4CCOCC4)cc3c1=O)OC(c1ccco1)C2 (stereo not shown)', 'melting point', '220 to 222.5 °C'),
  ('CSCC1Cn2cc(C(=O)NCc3ccc(Cl)cc3)c(=O)c3cc(CN4CCOCC4)cc(c32)O1 (stereo not shown)', 'melting point', '190 to 191 °C');

[in] Hello, please tell me recorded melting point for this one: O=C(NCc1ccc(Cl)cc1)c1cn2c3c(cc(CN4CCOCC4)cc3c1=O)OC(c1cccc(O)c1)C2 (stereo not shown)
[out] 213 °C (dec.)

[in] For the molecule O=C(NCc1ccc(Cl)cc1)c1cn2c3c(cc(CN4CCOCC4)cc3c1=O)OC1(CCSCC1)C2 , give its reported melting point.
[out] 147 to 149 °C

---

# systemName: CMV polymerase (Human cytomegalovirus)
# Construct: made in house; host or cells: recombinant baculovirus-infected SF-9 cells
# Sequence (P08546 whole entry): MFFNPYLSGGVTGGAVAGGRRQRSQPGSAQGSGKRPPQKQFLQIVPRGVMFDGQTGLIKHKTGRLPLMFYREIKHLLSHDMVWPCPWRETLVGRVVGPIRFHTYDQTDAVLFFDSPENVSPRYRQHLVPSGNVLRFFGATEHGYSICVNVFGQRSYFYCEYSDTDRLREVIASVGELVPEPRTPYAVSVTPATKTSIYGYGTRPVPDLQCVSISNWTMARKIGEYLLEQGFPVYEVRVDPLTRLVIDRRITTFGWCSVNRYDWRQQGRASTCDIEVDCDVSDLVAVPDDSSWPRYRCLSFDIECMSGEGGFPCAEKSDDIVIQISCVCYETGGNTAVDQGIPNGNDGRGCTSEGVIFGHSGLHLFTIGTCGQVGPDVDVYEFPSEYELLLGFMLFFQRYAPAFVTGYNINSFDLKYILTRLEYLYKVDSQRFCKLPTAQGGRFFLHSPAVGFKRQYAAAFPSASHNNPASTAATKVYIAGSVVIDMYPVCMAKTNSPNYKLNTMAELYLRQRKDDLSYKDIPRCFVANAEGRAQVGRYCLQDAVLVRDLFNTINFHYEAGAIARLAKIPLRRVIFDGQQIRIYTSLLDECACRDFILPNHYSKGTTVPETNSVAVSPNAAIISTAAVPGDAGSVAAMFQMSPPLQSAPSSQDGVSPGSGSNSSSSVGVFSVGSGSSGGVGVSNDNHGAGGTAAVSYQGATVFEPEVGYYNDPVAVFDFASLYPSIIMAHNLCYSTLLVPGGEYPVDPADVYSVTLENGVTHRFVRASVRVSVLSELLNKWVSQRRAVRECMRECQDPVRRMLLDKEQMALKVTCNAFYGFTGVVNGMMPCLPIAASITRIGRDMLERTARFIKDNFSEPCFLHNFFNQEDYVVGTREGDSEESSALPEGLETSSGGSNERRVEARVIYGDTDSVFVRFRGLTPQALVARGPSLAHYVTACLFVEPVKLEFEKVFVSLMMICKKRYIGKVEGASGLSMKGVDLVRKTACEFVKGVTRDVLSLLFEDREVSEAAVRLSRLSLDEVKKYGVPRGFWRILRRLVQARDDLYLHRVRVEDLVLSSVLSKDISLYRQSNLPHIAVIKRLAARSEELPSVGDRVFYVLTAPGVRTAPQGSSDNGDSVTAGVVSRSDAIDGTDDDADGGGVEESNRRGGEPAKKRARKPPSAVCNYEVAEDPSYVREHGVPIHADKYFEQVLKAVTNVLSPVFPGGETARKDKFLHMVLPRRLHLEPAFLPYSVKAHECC
# assayExplanation: HCMV polymerase assay, scintillation proximity assay (SPA), modified version
# Assay type: biochemical
# conditionDetails: modified HCMV polymerase SPA assay: compounds diluted in 100% DMSO, 4.5 mM DTT in polymerase buffer, different lot of CMV polymerase; read-out: CMV polymerase IC50
pIC50: −log10 of the molar value.
assayReadout: pIC50

INSERT INTO assay_data (compound, assayreadout, valuemeasured) VALUES
  ('O=C(NCc1ccc(Cl)cc1)c1cn2c3c(cc(CN4CCOCC4)cc3c1=O)OC(CO)(CO)C2', 'pIC50', 6.09),
  ('CN1CCN(CC2Cn3cc(C(=O)NCc4ccc(Cl)cc4)c(=O)c4cc(CN5CCOCC5)cc(c43)O2)CC1 (centres unmarked)', 'pIC50', 5.89),
  ('O=C(NCc1ccc(Cl)cc1)c1cn2c3c(cc(CN4CCOCC4)cc3c1=O)OC(CNCc1ccncc1)C2 (centres unmarked)', 'pIC50', 6.23),
  ('O=C(NCc1ccc(Cl)cc1)c1cn2c3c(cc(CN4CCOCC4)cc3c1=O)OC(CNCCO)C2 (centres unmarked)', 'pIC50', 6.17),
  ('O=C(NCc1ccc(Cl)cc1)c1cn2c3c(cc(CN4CCOCC4)cc3c1=O)OC1(CCNCC1)C2', 'pIC50', 5.67),
  ('CC(C)(C)OC(=O)N1CCC2(CC1)Cn1cc(C(=O)NCc3ccc(Cl)cc3)c(=O)c3cc(CN4CCOCC4)cc(c31)O2', 'pIC50', 6.08),
  ('O=C(NCc1ccc(Cl)cc1)c1cn2c3c(cc(CN4CCOCC4)cc3c1=O)OC(CNCc1cccnc1)C2 (single isomer, unassigned) [Example 22]', 'pIC50', 6.52),
  ('O=C(NCc1ccc(Cl)cc1)c1cn2c3c(cc(CN4CCOCC4)cc3c1=O)OC(CNCc1ccccn1)C2 (centres unmarked)', 'pIC50', 6.21),
  ('O=C(NCc1ccc(Cl)cc1)c1cn2c3c(cc(CN4CCOCC4)cc3c1=O)OCC2c1ccccc1 (centres unmarked)', 'pIC50', 6.00),
  ('O=C(NCc1ccc(Cl)cc1)c1cn2c3c(cc(CN4CCOCC4)cc3c1=O)OC(F)(F)C2', 'pIC50', 6.22);

I = O=C(NCc1ccc(Cl)cc1)c1cn2c3c(cc(CN4CCOCC4)cc3c1=O)OC(CNCc1ccc(Cl)cc1)C2 (centres unmarked)
II = O=C(NCc1ccc(Cl)cc1)c1cn2c3c(cc(CN4CCOCC4)cc3c1=O)OC(CSCCO)C2 (centres unmarked)
[in] Min pIC50? I | II Reply briefly: the label of your chosen item.
[out] I

---

# systemName: CMV polymerase (Human cytomegalovirus)
# Construct: made in house; host or cells: recombinant baculovirus-infected SF-9 cells
# assayExplanation: HCMV polymerase assay, scintillation proximity assay (SPA), modified version
# Type: biochemical
# conditionDetails: modified HCMV polymerase SPA assay: compounds diluted in 100% DMSO, 4.5 mM DTT in polymerase buffer, different lot of CMV polymerase; read-out: CMV polymerase IC50
pIC50: −log10 of the molar value.
assayReadout: pIC50

Example results:
INSERT INTO assay_data (compound, valuemeasured) VALUES
  ('O=C(NCc1ccc(Cl)cc1)c1cn2c3c(cc(CN4CCOCC4)cc3c1=O)OC(c1ccc3c(c1)OCCO3)C2 (stereo not shown)', 6.36),
  ('COC(=O)CSCC1Cn2cc(C(=O)NCc3ccc(Cl)cc3)c(=O)c3cc(CN4CCOCC4)cc(c32)O1 (stereo not shown)', 6.24);

a = COCOCc1ccccc1C1Cn2cc(C(=O)NCc3ccc(Cl)cc3)c(=O)c3cc(CN4CCOCC4)cc(c32)O1 (stereo not shown)
b = O=C(NCc1ccc(Cl)cc1)c1cn2c3c(cc(CN4CCOCC4)cc3c1=O)OC(c1cccc(O)c1)C2 (stereo not shown)
[in] I would appreciate it if you could say which entry, a or b , has the lower pIC50 value. Give the label of your selection.
[out] a

---

assayReadout: melting point

Example compounds with recorded melting point:
INSERT INTO results (compound, valuemeasured) VALUES
  ('CN(C)CC1Cn2cc(C(=O)NCc3ccc(Cl)cc3)c(=O)c3cc(CN4CCOCC4)cc(c32)O1 (stereo not drawn)', '168 to 170 °C'),
  ('O=C(NCc1ccc(Cl)cc1)c1cn2c3c(cc(CN4CCOCC4)cc3c1=O)OC(c1cccc3c1OCO3)C2 (stereo not drawn)', '221 to 225 °C (dec.)'),
  ('O=C(NCc1ccc(Cl)cc1)c1cn2c3c(cc(CN4CCOCC4)cc3c1=O)OC(c1ccsc1)C2 (stereo not drawn)', '241 to 245 °C (dec.)'),
  ('COCOCC1(COCOC)Cn2cc(C(=O)NCc3ccc(Cl)cc3)c(=O)c3cc(CN4CCOCC4)cc(c32)O1', '147 to 149 °C'),
  ('O=C(NCc1ccc(Cl)cc1)c1cn2c3c(cc(CN4CCOCC4)cc3c1=O)OC(CO)(CO)C2', '230 to 233 °C'),
  ('O=C(NCc1ccc(Cl)cc1)c1cn2c3c(cc(CN4CCOCC4)cc3c1=O)OC(c1ccc3c(c1)OCCO3)C2 (stereo not drawn)', '240 to 243 °C');

[in] State, in one line, measured melting point of O=C(NCc1ccc(Cl)cc1)c1cn2c3c(cc(CN4CCOCC4)cc3c1=O)OC(CN1CCCC1)C2 (stereo not drawn)
[out] 209.5 to 212 °C

[in] Please give measured melting point of the following entry: COCOc1cccc(C2Cn3cc(C(=O)NCc4ccc(Cl)cc4)c(=O)c4cc(CN5CCOCC5)cc(c43)O2)c1OCOC (stereo not drawn)
[out] 177 to 180 °C

[in] Report measured melting point; entry is O=C(NCc1ccc(Cl)cc1)c1cn2c3c(cc(CN4CCOCC4)cc3c1=O)OC1(CCC(O)CC1)C2 (stereo not drawn)
[out] 229 to 234 °C

[in] Identify measured melting point corresponding to O=C(NCc1ccc(Cl)cc1)c1cn2c3c(cc(CN4CCOCC4)cc3c1=O)OC(CNCc1ccncc1)C2 (stereo not drawn)
[out] 164 to 167 °C

[in] Read the entry O=C(NCc1ccc(Cl)cc1)c1cn2c3c(cc(CN4CCOCC4)cc3c1=O)OC(c1ccccc1CO)C2 (stereo not drawn) and write its reported melting point.
[out] 218 to 223 °C (dec.)

[in] Let me know recorded melting point for CN1CCC2(CC1)Cn1cc(C(=O)NCc3ccc(Cl)cc3)c(=O)c3cc(CN4CCOCC4)cc(c31)O2 , thanks.
[out] 234 to 237 °C (dec.)

[in] Fill in reported melting point for this entry: O=C(NCc1ccc(Cl)cc1)c1cn2c3c(cc(CN4CCOCC4)cc3c1=O)OC(Cn1ccnc1)C2 (stereo not drawn)
[out] 217 to 219 °C (dec.)

[in] Respond only with melting point recorded for COCOc1cc(OCOC)cc(C2Cn3cc(C(=O)NCc4ccc(Cl)cc4)c(=O)c4cc(CN5CCOCC5)cc(c43)O2)c1 (stereo not drawn)
[out] 187 to 189 °C

---

# systemName: CMV polymerase (Human cytomegalovirus)
# Construct: made in house; host or cells: recombinant baculovirus-infected SF-9 cells
# assayExplanation: HCMV polymerase assay, scintillation proximity assay (SPA), modified version
# Assay type: biochemical
# conditionDetails: modified HCMV polymerase SPA assay: compounds diluted in 100% DMSO, 4.5 mM DTT in polymerase buffer, different lot of CMV polymerase; read-out: CMV polymerase IC50
pIC50: −log10 of the molar value.
assayReadout: pIC50

Answered examples (4):
INSERT INTO results (compound, systemname, valuemeasured) VALUES
  ('CSCC1Cn2cc(C(=O)NCc3ccc(Cl)cc3)c(=O)c3cc(CN4CCOCC4)cc(c32)O1 (centres unmarked)', 'CMV polymerase (Human cytomegalovirus)', 6.26),
  ('O=C(NCc1ccc(Cl)cc1)c1cn2c3c(cc(CN4CCOCC4)cc3c1=O)OC(c1cccc(CO)c1)C2 (centres unmarked)', 'CMV polymerase (Human cytomegalovirus)', 6.42),
  ('O=C(NCc1ccc(Cl)cc1)c1cn2c3c(cc(CN4CCOCC4)cc3c1=O)OC(c1cccnc1)C2 (centres unmarked)', 'CMV polymerase (Human cytomegalovirus)', 6.32),
  ('O=C(NCc1ccc(Cl)cc1)c1cn2c3c(cc(CN4CCOCC4)cc3c1=O)OC(CN1CCCCC1)C2 (centres unmarked)', 'CMV polymerase (Human cytomegalovirus)', 5.82);

I = COCOc1cccc(C2Cn3cc(C(=O)NCc4ccc(Cl)cc4)c(=O)c4cc(CN5CCOCC5)cc(c43)O2)c1OCOC (centres unmarked)
II = N#Cc1cccc(C2Cn3cc(C(=O)NCc4ccc(Cl)cc4)c(=O)c4cc(CN5CCOCC5)cc(c43)O2)c1 (centres unmarked)
III = CN1CCC2(CC1)Cn1cc(C(=O)NCc3ccc(Cl)cc3)c(=O)c3cc(CN4CCOCC4)cc(c31)O2
[in] Rank descending by pIC50. Returns: the labels arranged in the requested order.
[out] II, I, III
(II: 6.38, I: 5.98, III: 5.63)
